All values here come from patent US9556159B2.

MEASUREMENT_TARGET: Recombinant human renin (Homo sapiens, UniProt P00797)
Sequence (P00797 67-406): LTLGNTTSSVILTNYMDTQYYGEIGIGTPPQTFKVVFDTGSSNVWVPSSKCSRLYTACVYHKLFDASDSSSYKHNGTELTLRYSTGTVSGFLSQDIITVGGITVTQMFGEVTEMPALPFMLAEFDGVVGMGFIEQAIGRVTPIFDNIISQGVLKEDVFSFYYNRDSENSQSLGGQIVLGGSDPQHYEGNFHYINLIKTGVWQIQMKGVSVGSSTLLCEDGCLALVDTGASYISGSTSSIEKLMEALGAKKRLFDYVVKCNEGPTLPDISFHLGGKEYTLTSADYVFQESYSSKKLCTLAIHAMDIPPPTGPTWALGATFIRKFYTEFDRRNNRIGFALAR
TEST_PROTOCOL: Inhibitory activity against human renin (fluorogenic peptide substrate)
Assay type: biochemical
COND: 50% inhibitory concentration (IC50) against human renin, 37° C. for 1 hour
READOUT: IC50 (nM)

COMPOUND	IC50 / nM
COC(=O)NCCCn1nc([C@@H](C)N(C(=O)[C@H]2CN[C@H](CC(F)F)CO2)C2CC2)c2ccc(C)nc21	6.6
CCc1cc([C@@H](C)N(C(=O)[C@H]2CNC[C@@H](C)O2)C2CC2)nc2c1cnn2CCCOC	2.6
COC(=O)NCCCn1nc([C@@H](C)N(C(=O)[C@H]2CNC[C@@H](C)O2)C2CC2)cc1C(C)(C)c1ccccc1	3.5
COC[C@H]1CO[C@@H](C(=O)N(C2CC2)[C@H](C)c2cn(CCCNC(=O)OC)c(-c3ccc(F)cc3)n2)CN1	0.5

P: COC(=O)NCCCc1cc([C@@H](C)N(C(=O)[C@H]2CNCCO2)C2CC2)sc1-c1cnc(N)nc1 [Example 412]
Q: COc1ccc(Cn2cc([C@@H](C)N(C(=O)[C@H]3CNCCO3)C3CC3)nc2-c2ccccc2)cc1
R: C=C(c1sc([C@@H](C)N(C(=O)[C@H]2CNCCO2)C2CC2)cc1CCCNC(=O)OC)C(F)(F)F
S: COC(=O)NCCCc1cc([C@@H](C)N(C(=O)[C@H]2CNCCO2)C2CC2)sc1-c1ccccn1
Sequence the entries by IC50, beginning with the highest number. Lab note: final answer is the ordered label list.
Q, R, P, S
